Assay: thallium influx changes without GIRK channels – cell-based, HEK-293 rmGlu8, no GIRK, thallium flux, counter-screen for GIRK activator project, confirmation (AID 623868);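 also: extra codes mark interference with 3 for fluorescent and 4 for baseline rise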
Settings: thallium flux fluorescence, at 10 µM, actives lie on both sides, codes: 1 enhancer, -1 blocker, 0 none, thallium stimulus containing EC20 glutamate
Out of some 2,100 compounds screened, about 760 (36%) were called active. The list is a sample of the results.
readout kind: manual score
Output: the number by itself.

molecule: CC(NC(=O)c1ccccc1NC(=O)CSc1nnnn1C)c1ccccc1 (stereo not drawn)
manual score: 0
//
molecule: O=C(NC(=S)Nc1ccccc1N1CCCC1)c1ccc(-c2cccc([N+](=O)[O-])c2)o1
manual score: 0.5
//
molecule: COc1ccccc1N=Cc1nc(-c2ccccc2)oc1OC(C)=O
manual score: -1

### Prompt Name the reported manual score value associated with the molecule N=c1n(CCN2CCCCC2)c2ccccc2n1CC(O)COc1ccccc1 (stereo not drawn)
### Response 0

### Prompt Name the reported manual score value associated with the molecule O=C(NC(=S)Nc1ccccc1N1CCCC1)c1ccc([N+](=O)[O-])cc1
### Response 1

### Prompt Name the reported manual score value associated with the molecule CC(NC(=O)C1CC=CCC1C(=O)O)C1CC2CCC1C2 (stereo not drawn)
### Response 0

### Prompt Name the reported manual score value associated with the molecule CCCCn1c(CN(Cc2ccccc2)Cc2ccccc2)nc2c1c(=O)n(C)c(=O)n2C
### Response 0

### Prompt Name the reported manual score value associated with the molecule Cc1c(C(=O)NC(=S)Nc2ccccc2N2CCCC2)cccc1[N+](=O)[O-]
### Response 1
